# reported pIC50; entries follow
Target: T1, Flt-IgG (a chimeric Flt-human Fc molecule) (UniProt P17948 27-758, limits assumed)
T1 construct: Only described as a chimeric Flt-human Fc molecule; not shown: human Fc
T1 sequence (P17948 27-758 limits assumed, change not shown): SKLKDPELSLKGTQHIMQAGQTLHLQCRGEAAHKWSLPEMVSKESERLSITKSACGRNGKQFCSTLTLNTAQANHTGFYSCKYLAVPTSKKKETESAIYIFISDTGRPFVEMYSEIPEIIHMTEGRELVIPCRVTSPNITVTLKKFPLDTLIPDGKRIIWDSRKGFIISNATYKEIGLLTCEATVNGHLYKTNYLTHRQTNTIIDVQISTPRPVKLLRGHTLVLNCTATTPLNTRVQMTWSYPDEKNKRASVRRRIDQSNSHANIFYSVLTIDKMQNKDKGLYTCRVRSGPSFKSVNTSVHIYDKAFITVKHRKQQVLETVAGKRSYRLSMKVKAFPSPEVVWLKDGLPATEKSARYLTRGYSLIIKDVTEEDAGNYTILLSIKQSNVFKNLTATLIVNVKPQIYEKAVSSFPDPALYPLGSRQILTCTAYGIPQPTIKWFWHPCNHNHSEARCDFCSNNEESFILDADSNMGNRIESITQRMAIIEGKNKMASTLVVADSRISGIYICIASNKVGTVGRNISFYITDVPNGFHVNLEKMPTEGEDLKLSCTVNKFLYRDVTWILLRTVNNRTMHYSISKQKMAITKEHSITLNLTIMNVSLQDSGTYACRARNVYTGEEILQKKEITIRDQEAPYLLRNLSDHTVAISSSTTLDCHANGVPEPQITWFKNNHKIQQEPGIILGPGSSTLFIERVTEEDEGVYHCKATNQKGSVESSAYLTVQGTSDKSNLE
Experiment: competition ELISA vs biotinylated native VEGF, Flt-IgG captured by anti-Fc
Note on units: pIC50 is unitless, being -log10 of a concentration expressed in mol/L.

Here's what some known entries look like.
binder="LK-VRB-3s (ligand, human, UniProt P15692-4 27-135, looked up) APMAEGGGQNHHEVVKIEDVFKRSSCHPIETLVDIFQEYPDEIEYIFKPSCVPLMRCGGCCNDEGLECVPTEESNITMQIMRIKPHQGQHIGEMSFLQHNKCECRPKKD" endpoint_value=6.77
binder="native VEGF (8-109) (ligand, human, UniProt P15692 214-315, looked up, biotinylated where used as tracer) GQNHHEVVKFMDVYQRSYCHPIETLVDIFQEYPDEIEYIFKPSCVPLMRCGGCCNDEGLECVPTEESNITMQIMRIKPHQGQHIGEMSFLQHNKCECRPKKD" endpoint_value=9.38
binder="LK-VRB-1s* (ligand, human, UniProt P15692-4 27-135, looked up) APMAEGGGQNHHEVVKFEDVLRRSSCHPIETLVDIFQEYPDEIEYIFKPSCVPLMRCGGCCNDEGLECVPTEESNITMQIMRIKPHQGQHIGEMSFLQHNKCECRPKKD" endpoint_value=5.57

From here, focus on the item given below.
Input line: Reported pIC50 for LK-VRB-2f (ligand, human, UniProt P15692-4 27-191, looked up, also called KDR-selective VEGF variant; KDR-sel) APMAEGGGQNHHEVVKFMDVYQRSYCHPIETLVDIFQEYPDEIEYIFKPSCVPLMRCGGCCNSEMRECVPTEESNITMQIMRIKPHQGQHIGEMSFLQHNKCECRPKKDRARQENPCGPCSERRKHLFVQDPQTCKCSCKNTDSRCKARQLELNERTCRCDKPRR : what is it?
Output line: 7.72
